Target under test: T1, human CD80-murine Ig fusion protein (human)
T1 construct: Bought (Ancell #510-820); also called hCD80-mIg; human CD80-murine IgG
T1 chain: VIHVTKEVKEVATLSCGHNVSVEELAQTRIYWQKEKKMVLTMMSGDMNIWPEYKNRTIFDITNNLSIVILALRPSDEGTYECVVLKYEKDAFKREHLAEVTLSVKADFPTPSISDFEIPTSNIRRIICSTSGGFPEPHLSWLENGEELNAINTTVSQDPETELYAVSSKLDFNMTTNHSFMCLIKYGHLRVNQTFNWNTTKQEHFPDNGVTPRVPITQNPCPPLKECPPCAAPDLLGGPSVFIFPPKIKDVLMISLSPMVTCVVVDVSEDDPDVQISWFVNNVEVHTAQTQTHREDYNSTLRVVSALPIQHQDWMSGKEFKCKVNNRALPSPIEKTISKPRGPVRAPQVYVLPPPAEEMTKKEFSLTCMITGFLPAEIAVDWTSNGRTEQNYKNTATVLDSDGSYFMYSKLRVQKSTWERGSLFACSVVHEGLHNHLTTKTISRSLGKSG
Measurement notes: SPR Biacore, hCD80-mIg captured
Description: All Biacore™ analyses were performed on a Biacore™ 2000 system (GE Healthcare) at room temperature (RT, 25° C.). HBS-EP buffer (10 mM HEPES (pH 7.4), 150 mM NaCl, 3 mM EDTA, 0.005% surfactant P20) was used as the flow buffer for all experiments. Rabbit anti-mouse IgG antibody (GE Healthcare, #BR-1005-14) was immobilized on CM5 sensor chips (GE Healthcare, #BR-1000-14) according to the manufacturer's protocol. […]
Hi there, I'd appreciate the recorded Kd for every entry that follows.

D3-76-IgG2 (Fc fusion) MHVAQPAVVLASSRGIASFVCEYASPGKANEVRVTVLRQADSQVTEVCAMTYMKEDELTFLDDPICTGTFSGNQVNLTIQGLRAMDTGLYICKVELMYPPPYYLGIGNGTQIYVIDPEPCPDSDERKCCVECPPCPAPPVAGPSVFLFPPKPKDTLMISRTPEVTCVVVDVSHEDPEVQFNWYVDGVEVHNAKTKPREEQFNSTFRVVSVLTVVHQDWLNGKEYKCKVSNKGLPAPIEKTISKTKGQPREPQVYTLPPSREEMTKNQVSLTCLVKGFYPSDIAVEWESNGQPENNYKTTPPMLDSDGSFFLYSKLTVDKSRWQQGNVFSCSVMHEALHNHYTQKSLSLSPG    0.439 to 1.75 nM

Now for a further binder.
Given the entry D3-54-IgG2 (Fc fusion) MHVAQPAVVLASSRGIASFVCEYASPGKANEVRVTVLRQADSQVTEVCAMTYMKENELTFLDDPICTGTFSGNQVNLTIQGLRAMDTGLYICKVELMYPPPYYLGIGNGTQIYVIDPEPCPDSDERKCCVECPPCPAPPVAGPSVFLFPPKPKDTLMISRTPEVTCVVVDVSHEDPEVQFNWYVDGVEVHNAKTKPREEQFNSTFRVVSVLTVVHQDWLNGKEYKCKVSNKGLPAPIEKTISKTKGQPREPQVYTLPPSREEMTKNQVSLTCLVKGFYPSDIAVEWESNGQPENNYKTTPPMLDSDGSFFLYSKLTVDKSRWQQGNVFSCSVMHEALHNHYTQKSLSLSPG , report its measured Kd.
0.439 to 1.75 nM
